Give half-life at 0.5 μM for every item shown.
assay: in vitro; format: in vitro ADME; details: human, plasma
Report as a plain number; the unit h is understood.

Return reported half-life at 0.5 μM; argument: C=CC(=O)N1C[C@H](C)N(c2nc(=O)n(-c3c(SC)ccnc3C(C)C)c3nc(-c4c(N)ccc(Cl)c4F)c(Cl)cc23)C[C@H]1C (single isomer, unassigned)
8.35

Please do the same for C=CC(=O)N1C[C@H](C)N(c2nc(=O)n(-c3c(SC)ccnc3C(C)C)c3nc(-c4c(O)cccc4F)c(Cl)cc23)C[C@H]1C (single isomer, unassigned) as well.
5.64

---

Give MRT for every item shown.
test: in vivo; conditions: male, Balb/c, mouse, po, 10 mg/kg
Report as a plain number; the unit min is understood.

Return reported MRT; argument: C=CC(=O)N1C[C@H](C)N(c2nc(=O)n(-c3c(SC)ccnc3C(C)C)c3nc(-c4c(N)ccc(Cl)c4F)c(Cl)cc23)C[C@H]1C (single isomer, unassigned)
90

Please do the same for C=CC(=O)N1C[C@H](C)N(c2nc(=O)n(-c3c(SC)ccnc3C(C)C)c3nc(-c4c(O)cccc4F)c(F)cc23)C[C@H]1C [Embodiment 114] as well.
42

Please do the same for C=CC(=O)N1C[C@H](C)N(c2nc(=O)n(-c3c(SC)ccnc3C(C)C)c3nc(-c4c(O)cccc4F)c(F)cc23)C[C@H]1C (single isomer, unassigned) [Embodiment 114-1] as well.
42
